Data origin: PubChem BioAssay AID296

- Test system: MX-1 breast xenograft, nude mice, tumor weight T/C
- Run description: NCI In Vivo Anticancer Drug Screen. Data for tumor model Human Mammary Carcinoma MX-1 Xenograft (intrarenal inoculation) in NU/NU Swiss (nude) mice
- Run parameters: endpoint: mean tumor weight change; dose: 1600.0 mg/kg/injection; schedule: Q04DX003 (sc); vehicle: saline; higher = larger tumour
- Procedure: The antitumor activity of compounds was measured in mice bearing transplantable tumors. Survival or tumor size were measured and the results are expressed as the measurement made in the treated group (T) divided by the measurement made in the vehicle treated control group (C). The tumor model used in this assay is Human Mammary Carcinoma MX-1 Xenograft (intrarenal inoculation) in NU/NU Swiss (nude) mice
Inconclusive results are not listed.
Measured attribute: T/C

Below, each entry is followed by its recorded T/C result.
- Compound: "Nc1ncnc2c1ncn2C1OC(CO)C(O)C1O (stereo not given)"
  Measured attribute: "T/C"
  Reported value: "52 % of control"
- Compound: "NC(=O)CC(N)C(=O)O (stereo not given)"
  Measured attribute: "T/C"
  Reported value: "88 % of control"
- Compound: "N=c1ccn2c(n1)OC1C(O)C(CO)OC12 (stereo not given)"
  Measured attribute: "T/C"
  Reported value: "64 % of control"

// query T/C value for entry Nc1ncn(C2OC(CO)C(O)C2O)c(=O)n1 (stereo not given)
2 % of control

Another: Cc1cn(C2CC(O)C(CO)O2)c(=O)[nH]c1=O (stereo not given)
89 % of control

###

Listed below: T/C values for each entry.
- Test system: MX-1 breast xenograft, nude mice, tumor weight T/C
- Run description: NCI In Vivo Anticancer Drug Screen. Data for tumor model Human Mammary Carcinoma MX-1 Xenograft (intrarenal inoculation) in NU/NU Swiss (nude) mice
- Run parameters: endpoint: mean tumor weight change; dose: 12.5 mg/kg/injection; schedule: Q04DX003 (sc); vehicle: saline; higher = larger tumour
Inconclusive results are not listed.

- Compound: "O=c1[nH]cnc2c1ccn2C1OC(CO)C(O)C1O (stereo unspecified)"
  T/C: "57 % of control"

Turning to the following compound.
MX-1 breast xenograft, nude mice, tumor weight T/C / T/C / COc1ccc(C(=O)C(CN(C)C)CN(C)C)cc1 : value?
101 % of control

###

- Tested on: MX-1 breast xenograft, nude mice, tumor weight T/C
- Run description: NCI In Vivo Anticancer Drug Screen. Data for tumor model Human Mammary Carcinoma MX-1 Xenograft (intrarenal inoculation) in NU/NU Swiss (nude) mice
- Run parameters: endpoint: mean tumor weight change; dose: 100.0 mg/kg/injection; schedule: Q01DX010 (sc); vehicle: saline; higher = larger tumour
- Protocol: The antitumor activity of compounds was measured in mice bearing transplantable tumors. Survival or tumor size were measured and the results are expressed as the measurement made in the treated group (T) divided by the measurement made in the vehicle treated control group (C). The tumor model used in this assay is Human Mammary Carcinoma MX-1 Xenograft (intrarenal inoculation) in NU/NU Swiss (nude) mice
Records with an inconclusive call do not appear.
Measured attribute: T/C

# example entries with known answers
- Molecule: "c1ccc(CN2CCOC2)cc1"
  T/C: "70 % of control"
- Molecule: "CC1(C)OC(=O)N(CO)C1=O"
  T/C: "48 % of control"
- Molecule: "C[N+](C)(C)c1ncnc2nc[nH]c12"
  T/C: "38 % of control"
- Molecule: "CN(CO)c1nc(N(C)CO)nc(N(C)CO)n1"
  T/C: "-81 % of control"
- Molecule: "CC(=O)NCCCCCCNC(C)=O"
  T/C: "124 % of control"
- Molecule: "CC1CN1P1(N2CC2C)=NP(N2CC2C)(N2CC2C)=NP(N2CC2C)(N2CC2C)=N1 (stereo not drawn)"
  T/C: "-7 % of control"
- Molecule: "Cc1ccccc1N(CC1CO1)CC1CO1 (stereo not drawn)"
  T/C: "91 % of control"
- Molecule: "COc1cc(C)c2c(c1C=O)Oc1c(c(C)c(O)c3c1C(O)OC3=O)OC2=O (stereo not drawn)"
  T/C: "98 % of control"

Name the reported T/C value associated with the molecule NC(C/[N+]([O-])=N/O)C(=O)O (stereo not drawn)
62 % of control

Would you kindly repeat that for N/C=N/O ?
107 % of control

# repeat for Nc1nc(F)nc2c1ncn2C1OC(COP(=O)(O)O)C(O)C1O (stereo not drawn)
69 % of control

Repeat with CCCC(=O)O
104 % of control

Also need CCOC(=O)c1c[nH]c2oc(/C=N/N3CC(CN4CCOCC4)OC3=O)cc2c1=O (stereo not drawn) , thanks.
77 % of control

###

- System: MX-1 breast xenograft, nude mice, tumor weight T/C
- Run description: NCI In Vivo Anticancer Drug Screen. Data for tumor model Human Mammary Carcinoma MX-1 Xenograft (intrarenal inoculation) in NU/NU Swiss (nude) mice
- Run parameters: endpoint: mean tumor weight change; dose: 25.0 mg/kg/injection; schedule: Q04DX003 (sc); vehicle: Klucel (hydroxypropylcellulose) (HPC); higher = larger tumour
Records with an inconclusive call do not appear.
Measured T/C, listed per entry.

These recorded examples may help you get a feel for the data.
- Structure as smiles: "C=C1C(=O)C23[C@H](O)C1CC[C@H]2[C@]12COC3(O)[C@@H](O)[C@@H]1C(C)(C)CC[C@@H]2O"
  T/C: "85 % of control"
- Structure as smiles: "O=NN(CCF)C(=O)NC1CCCCC1"
  T/C: "92 % of control"
- Structure as smiles: "COc1ccc2c(c1)CCC(c1ccccc1)=C2c1ccc(OCCN2CCCC2)cc1"
  T/C: "79 % of control"

Then this compound:
# get_value(readout='T/C', item= CC1=C2CC(C)(C)/C=C\C(=O)/C(C)=C\C3=C[C@H](C)C[C@]3(O2)C1=O )
100 % of control

###

- Test system: MX-1 breast xenograft, nude mice, tumor weight T/C
- Run description: NCI In Vivo Anticancer Drug Screen. Data for tumor model Human Mammary Carcinoma MX-1 Xenograft (intrarenal inoculation) in NU/NU Swiss (nude) mice
- Run parameters: endpoint: mean tumor weight change; dose: 25.0 mg/kg/injection; schedule: Q01DX010 (sc); vehicle: saline; higher = larger tumour
Inconclusive results are not listed.
Measured attribute: T/C

- Compound: "Nc1cc2[nH]cnc2c(=O)[nH]1"
  T/C: "46 % of control"
- Compound: "COc1ccc(C(=O)/C(Br)=C/C(=O)O)cc1"
  T/C: "63 % of control"
- Compound: "N=[N+]=CC(=O)OCC(N)C(=O)O (stereo not drawn)"
  T/C: "-80 % of control"
- Compound: "O=NNc1ccccn1"
  T/C: "1 % of control"
- Compound: "Nc1nncs1"
  T/C: "86 % of control"

Endpoint output: T/C of N=C(N)Sc1ccccn1 . Value?
182 % of control

Now consider c1ccc(CN2CCOC2)cc1 and answer again.
60 % of control

Moving on to the next compound: CC[N](CC)[Ge]([CH2]C)[CH2]C.CC[N](CC)[Ge]([CH2]C)[CH2]C
106 % of control

###

- Tested on: MX-1 breast xenograft, nude mice, tumor weight T/C
- Run description: NCI In Vivo Anticancer Drug Screen. Data for tumor model Human Mammary Carcinoma MX-1 Xenograft (intrarenal inoculation) in NU/NU Swiss (nude) mice
- Run parameters: endpoint: mean tumor weight change; dose: 50.0 mg/kg/injection; schedule: Q01DX010 (sc); vehicle: Klucel (hydroxypropylcellulose) (HPC); higher = larger tumour
Inconclusive results are not listed.
Measured attribute: T/C

Example entries and their recorded answers appear below.
- Compound: "Nc1nc(=S)c2ncn(C3CC(O)C(CO)O3)c2[nH]1 (centres undefined)"
  T/C: "64 % of control"
- Compound: "Cc1ccc(S(=O)(=O)N/N=C/C(=O)O)cc1"
  T/C: "103 % of control"
- Compound: "Cn1cnc([N+](=O)[O-])c1S(=O)(=O)NCN1CCOCC1"
  T/C: "76 % of control"
- Compound: "Cc1cc(N(CCOS(C)(=O)=O)CCOS(C)(=O)=O)ccc1C=Nc1ccc(-c2nc(Cc3ccccc3)sc2C)cc1"
  T/C: "-79 % of control"
- Compound: "O=C([CH-]C(=O)C(F)(F)F)c1ccccc1.O=C([CH-]C(=O)C(F)(F)F)c1ccccc1.O=C([CH-]C(=O)C(F)(F)F)c1ccccc1.O=C([CH-]C(=O)C(F)(F)F)c1ccccc1.[Eu+3].c1ccncc1"
  T/C: "197 % of control"

API: the following record is the query input.
Please report the recorded T/C for Cc1ccc2c(ccc(CC(=S)[S-])[n+]2C)c1 .
57 % of control

###

T/C overview
- Test system: MX-1 breast xenograft, nude mice, tumor weight T/C
- Run description: NCI In Vivo Anticancer Drug Screen. Data for tumor model Human Mammary Carcinoma MX-1 Xenograft (intrarenal inoculation) in NU/NU Swiss (nude) mice
- Run parameters: endpoint: mean tumor weight change; dose: 300.0 mg/kg/injection; schedule: Q04DX003 (sc); vehicle: saline with Tween-80; higher = larger tumour
Records with an inconclusive call do not appear.

Some entries whose results are on file:
- Compound: "CC(=O)NC(Cc1ccc(F)cc1)C(=O)O (configuration not stated)"
  Experimental target: "MX-1 breast xenograft, nude mice, tumor weight T/C"
  T/C: "100 % of control"
- Compound: "CCCCCCOC(CN(C)C)C(Cl)(Cl)Cl (configuration not stated)"
  Experimental target: "MX-1 breast xenograft, nude mice, tumor weight T/C"
  T/C: "70 % of control"
- Compound: "CCOC(=O)C1(c2ccccc2)C(=O)Oc2ccccc21 (configuration not stated)"
  Experimental target: "MX-1 breast xenograft, nude mice, tumor weight T/C"
  T/C: "99 % of control"

Query for MX-1 breast xenograft, nude mice, tumor weight T/C: what T/C does the record show for S=c1[nH]cc2cnccn12 ?
104 % of control

Now consider CC/C(=C(/CC)c1ccc(O)cc1)c1ccc(O)cc1 and answer again.
48 % of control

Next entry: O=C1CN(Cc2ccc3c(c2)OCO3)NO1
42 % of control

Lookup Cc1oc2c(C)c3oc(=O)cc(C)c3cc2c1CCl
109 % of control
